# Tested target: Cbl-b (truncated variant, UniProt number Q13191) (Homo sapiens, UniProt Q13191)
# Construct: made in house
# Sequence (Q13191 36-427): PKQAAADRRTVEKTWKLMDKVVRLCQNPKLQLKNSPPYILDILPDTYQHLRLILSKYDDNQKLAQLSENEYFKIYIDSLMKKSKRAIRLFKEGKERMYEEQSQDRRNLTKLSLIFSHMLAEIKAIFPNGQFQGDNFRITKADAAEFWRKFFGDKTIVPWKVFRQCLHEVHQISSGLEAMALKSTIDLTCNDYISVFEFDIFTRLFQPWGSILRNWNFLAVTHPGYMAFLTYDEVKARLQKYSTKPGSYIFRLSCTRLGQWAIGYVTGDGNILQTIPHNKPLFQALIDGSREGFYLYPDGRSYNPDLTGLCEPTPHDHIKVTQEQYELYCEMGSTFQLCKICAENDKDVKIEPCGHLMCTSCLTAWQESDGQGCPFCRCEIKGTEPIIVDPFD
# Experiment summary: Cbl-b activity assay (TR-FRET, interaction of Cbl-b with UbcH5B-Ub)
# Format: biochemical
# Condition summary: low conditions: 50 mM NaCl, 30 nM Src kinase; 12 nM Cbl-b; read-out: Cbl-b activity IC50
Measured endpoint: IC50

Previously resolved entries follow.
| Molecule | IC50 |
| --- | --- |
| CC(Sc1nncn1C)c1cccc(C(=O)Nc2ccccn2)c1 (stereo not drawn) | ≥ 5 µM |
| CC(Sc1nncn1C)c1cccc(C(=O)Nc2cc3ccccc3cn2)c1 (stereo not drawn) | < 0.1 µM |
| C[C@H](Sc1nncn1C)c1cccc(NC(=O)NCc2ccccc2)c1 | ≥ 5 µM |
| CC(Sc1nncn1C)c1cccc(C(=O)Nc2ccccc2)c1 (stereo not drawn) | ≥ 5 µM |
| CC(Sc1nncn1C)c1cccc(C(=O)Nc2cccc(C(F)(F)F)n2)c1 (stereo not drawn) | ≥ 5 µM |

Now let's try a different one.
Query block: Give the reported value of IC50 for this record: "C[C@H](Sc1nncn1C)c1cccc(NC(=O)Nc2ccccn2)c1"
Result block: 0.1 to 1 µM

----------
Item-by-item account of pIC50
# Tested target: Cbl-b (truncated variant, UniProt number Q13191) (Homo sapiens, UniProt Q13191)
# Construct: made in house
# Experiment summary: Cbl-b activity assay (TR-FRET, interaction of Cbl-b with UbcH5B-Ub)
# Type: biochemical
# Condition summary: high conditions: 100 mM NaCl, 60 nM Src kinase; 12 nM Cbl-b; read-out: Cbl-b activity IC50
pIC50: −log10 of the molar value.

| Compound | Endpoint result |
| --- | --- |
| C[C@H](Sc1nncn1C)c1cccc(NC(=O)Nc2ccc(S(=O)(=O)N(C)C)cc2)c1 | ≤ 5.30 |
| C[C@H](Cc1nncn1C)c1cccc(-c2n[nH]c3c(N4CCC(O)CC4)ccnc23)c1 | 5.30 to 6.00 |
| C[C@H](Sc1nncn1C)c1cccc(NC(=O)N2CC3(CCCO3)C2)c1 | ≤ 5.30 |

Note: attention shifts to another entry.
Query block: # return recorded pIC50 for input C[C@H](Sc1nncn1C)c1cccc(NC(=O)NC2CCCN(C)C2)c1 (stereo partly shown)
Result block: ≤ 5.30

----------
# Tested target: Cbl-b (truncated variant, UniProt number Q13191) (Homo sapiens, UniProt Q13191)
# Construct: made in house
# Experiment summary: Cbl-b activity assay (TR-FRET, interaction of Cbl-b with UbcH5B-Ub)
# Type: biochemical
# Condition summary: Biological Example 1A; low or high conditions not stated; read-out: IC50 values in the Cbl-b inhibition assay of Biological Example 1A
pIC50: −log10 of the molar value.
Items are presented alongside their recorded pIC50.

The cases that follow already have their pIC50 on record.
| Compound | pIC50 |
| --- | --- |
| C[C@H](Sc1nncn1C)c1cccc(-n2ncc(-c3ccc(C(N)=O)cc3)n2)c1 | 5.30 to 6.00 |
| CC(Sc1nncn1C)c1cccc(C(=O)Nc2cc3ccccc3cn2)c1 (centres unmarked) | > 7.00 |
| C[C@H](Sc1nncn1C)c1cccc(-n2ncc(-c3cccc(C(N)=O)c3)n2)c1 | 6.00 to 7.00 |
| CNC(=O)C1(C)CCN(C(=O)Nc2cccc([C@H](C)Cc3nncn3C)c2)C1 (some centres unmarked) | ≤ 5.30 |
| C[C@@H](Sc1nncn1C)c1cccc(-n2ncc(-c3ccccc3)n2)c1 | ≤ 5.30 |
| C[C@H](Cc1nncn1C)c1cccc(NC(=O)N2C[C@H](CO)[C@@H](C)C2)c1 (relative stereo) | 5.30 to 6.00 |
| C[C@H](Sc1nncn1C)c1cccc(-c2cc(-c3ccc(CO)cc3)no2)c1 | 5.30 to 6.00 |
| C[C@H](Sc1nncn1C)c1cccc(-n2cc(-c3cccc(C#N)c3)nn2)c1 | ≤ 5.30 |

Query block: Send back Cbl-b (truncated variant, UniProt number Q13191) (Homo sapiens, UniProt Q13191) pIC50 of COc1cccc(-c2cc(-c3cccc(C(C)Sc4nncn4C)c3)[nH]n2)c1 (centres unmarked) only.
Result block: 5.30 to 6.00
